Origin of the recorded values: paper PMC9916857

target: α-glucosidase; assay: In vitro α-glucosidase inhibition assay (pNPG substrate); details: mean ± SD, n = 3
measured-attribute: IC50

Study these solved cases before continuing.
COC(=O)C1OC(OC2CCC3(C)C(CCC4(C)C3CC=C3C5CC(C)(C)CCC5(C(=O)O)CCC34C)C2(C)C)C(O)C(OC2OCC(O)C(O)C2O)C1O (stereo not drawn)
> 50 µM
COC(=O)C1OC(OC2CCC3(C)C(CCC4(C)C3CC=C3C5CC(C)(C)CCC5(C(=O)O)CCC34C)C2(C)C(=O)O)C(O)C(OC2OCC(O)C(O)C2O)C1O (stereo not drawn)
> 50 µM

Kindly consider the entry below.
State IC50 on α-glucosidase. Entry: CC1(C)CC[C@]2(C(=O)O)CC[C@]3(C)C(=CC[C@@H]4[C@@]5(C)CC[C@H](O)[C@@](C)(C(=O)O)[C@@H]5CC[C@]43C)[C@@H]2C1
> 50 µM

----------
target: α-glucosidase; test: In vitro α-glucosidase inhibition assay (pNPG substrate); settings: mean ± SD, n = 3
measured-attribute: IC50 (µM)

CC1(C)CC2C3=CCC4[C@@]5(C)CC[C@H](O)C(C)(C)C5CC[C@@]4(C)[C@]3(C)CC[C@@]2(C(=O)O)[C@H](O)C1 (stereo partly drawn)
17
CC1(C)CCC2(C(=O)OC3OC(CO)C(O)C(O)C3O)CCC3(C)C(=CCC4C5(C)CC(O)C(O)C(C)(C)C5CCC43C)C2C1 (stereo not drawn)
23.5

----------
Recorded Inhibitory Rate (%) values for a group of molecules are listed next.
system: α-glucosidase; test: In vitro α-glucosidase inhibition assay (pNPG substrate); assay type: biochemical; settings: percent inhibition at a concentration of 50 μM; mean ± SD (n = 3)
Marks after values point to notes of the source that are not given here.

Provide α-glucosidase Inhibitory Rate (%) reading for CC1(C)CC2C3=CCC4[C@@]5(C)CC[C@H](O)C(C)(C)C5CC[C@@]4(C)[C@]3(C)CC[C@@]2(C(=O)O)[C@H](O)C1 (some centres unmarked) .
69.91 ± 0.59 ^c %

----------
Entries annotated with measured pIC50
target: α-glucosidase; test: In vitro α-glucosidase inhibition assay (pNPG substrate); details: mean ± SD, n = 3
pIC50: −log10 of the molar value.

Example molecules with recorded pIC50:
CC1(C)CCC2(C(=O)OC3OC(CO)C(O)C(O)C3O)CCC3(C)C(=CCC4C5(C)CCC(OC6OC(C(=O)O)C(O)C(OC7OCC(O)C(O)C7O)C6OC6OC(CO)C(O)C(O)C6O)C(C)(C)C5CCC43C)C2C1 (stereo not shown)
5.37
CC1(C)C=C2C3CCC4[C@@]5(C)CC[C@H](O[C@@H]6O[C@H](CO)[C@@H](O)[C@H](O)[C@H]6O)C(C)(C)C5CC[C@@]4(C)[C@]3(C)CC[C@@]2(C(=O)O)CC1 (stereo partly shown)
< 4.30
CCOC(=O)C1OC(OC2CCC3(C)C(CCC4(C)C3CC=C3C5CC(C)(C)CCC5(C(=O)O)CCC34C)C2(C)C)C(O)C(OC2OCC(O)C(O)C2O)C1O (stereo not shown)
< 4.30

As a next step, examine the molecule that follows.
Supply measured pIC50 of CC1(C)CC[C@]2(C(=O)O)CC[C@]3(C)C(=CC[C@@H]4[C@@]5(C)CC[C@H](O[C@@H]6O[C@H](C(=O)O)[C@@H](O)[C@H](O[C@@H]7OC[C@@H](O)[C@H](O)[C@H]7O)[C@H]6O)C(C)(C)[C@@H]5CC[C@]43C)[C@@H]2C1 in your reply.
< 4.30

----------
Test system: α-glucosidase
Assay: In vitro α-glucosidase inhibition assay (pNPG substrate)
Format: biochemical
Conditions: percent inhibition at a concentration of 50 μM; mean ± SD (n = 3)
Procedure: The α-glucosidase inhibition assay was carried out on the basis of the method reported by Zhang et al., with minor modifications. […] […] To initiate the reaction, pNPG (40 μL) was added to the reaction mixture and incubated at 37 °C for 30 min. The reaction was terminated by adding 20 μL of Na2CO3, after which the absorbance was determined at 405 nm by a microplate reader (SpectraMax190, Micro-g Biotech, Guangzhou, China).
Marks after values point to notes of the source that are not given here.
measured-attribute: Inhibitory Rate (%)

Recorded Inhibitory Rate (%), per entry:
CC1(C)CC[C@]2(C(=O)O)CC[C@]3(C)C(=CC[C@@H]4[C@@]5(C)CC[C@H](O)[C@@](C)(C(=O)O)[C@@H]5CC[C@]43C)[C@@H]2C1
53.98 ± 1.65 ^e %
CC1(C)CC[C@]2(C(=O)O)CC[C@]3(C)C(=CC[C@@H]4[C@@]5(C)CC[C@H](O[C@@H]6O[C@H](C(=O)O)[C@@H](O)[C@H](O[C@@H]7OC[C@@H](O)[C@H](O)[C@H]7O)[C@H]6O)C(C)(C)[C@@H]5CC[C@]43C)[C@@H]2C1
26.28 ± 1.01 ^i %
COC(=O)C1OC(OC2CCC3(C)C(CCC4(C)C3CC=C3C5CC(C)(C)CCC5(C(=O)O)CCC34C)C2(C)C(=O)O)C(O)C(OC2OCC(O)C(O)C2O)C1O (stereo not shown)
14.05 ± 4.90 ^j %

Next compound, please.
Please indicate Inhibitory Rate (%) recorded for CC1(C)CC[C@]2(C(=O)O[C@@H]3O[C@H](CO)[C@@H](O)[C@H](O)[C@H]3O)CC[C@]3(C)C(=CC[C@@H]4[C@@]5(C)CC[C@H](O[C@@H]6O[C@H](C(=O)O)[C@@H](O)[C@H](O[C@@H]7OC[C@@H](O)[C@H](O)[C@H]7O)[C@H]6O)C(C)(C)[C@@H]5CC[C@]43C)[C@@H]2C1
52.71 ± 0.85 ^f %
